# System: T-47D breast
# PROTOCOL NOTES: NCI-60 one-dose screen, 48 h
# CONDITION: 10 µM unless noted
About 83,000 compounds went through this panel and 20% of them were active in at least one assay; those are over-represented in the sample as a whole. The source made the active and inactive calls. How the source made its calls: active means growth percent below 10; inactive means the rest.
Choose the fitting class; nothing outside class 1 = active, class 0 = inactive is accepted.

Lookup: Record request — test call for CCC(CC)N1C(=O)/C(=c2\sc3n(c2=O)NC2C(N=3)N(CC)C(=O)N2CC)c2ccccc21 (stereo not given)
Found: class 0

Lookup: Record request — test call for CC(C)c1ccc(NCc2cn(-c3ccc(C(=O)O)cc3)nc2-c2cc(C(F)(F)F)cc(C(F)(F)F)c2)cc1
Found: class 0

Lookup: Record request — test call for O=C(Nc1ccc2c(ccn2Cc2ccccn2)c1)c1cnccn1
Found: class 0

Lookup: Record request — test call for CCN(CC)c1ccc(NC2=C(Cl)C(=O)c3nc(C)ccc3C2=O)cc1
Found: class 1

Lookup: Record request — test call for Cc1cc(S(=O)(=O)N(C)C)cc(NCC(=O)NC(=O)NCC(C)C)c1C
Found: class 0

Lookup: Record request — test call for COc1ccc(-n2c(/C=C3\C(=O)Nc4ccccc43)ccc2CO)cc1
Found: class 0

Lookup: Record request — test call for Cc1ccc(-c2nnc(SCc3ccc(O)c4ncccc34)o2)cc1
Found: class 0

Lookup: Record request — test call for COc1cc(OC)cc(C(=O)Nc2sc3c(c2C(N)=O)CCC(=O)C3)c1
Found: class 1

Lookup: Record request — test call for COc1cc(-c2nn(C(C)(C)C)cc2-c2ccnc(NCCCNS(=O)(=O)c3ccc(Cl)cc3)n2)ccc1Cl
Found: class 0

Lookup: Record request — test call for COc1cc(OC)c(/C=C/S(=O)(=O)Cc2ccc(OC)c(NC(=O)CCC(=O)NO)c2)c(OC)c1
Found: class 0

Reference source: PubChem BioAssay (NCI)
